Test system: NCI-H226
assay method text: NCI tumour cell line growth inhibition, 48 h
The source made the active and inactive calls. No stated cut-off is given here; in the data, active = GI50 up to about 1.1 µM and inactive = higher.
quantity: GI50

> print(dat)
                                    compound  system.tested  quantity           meas.value
 1  Nc1cccc(OCc2nc(N)nc(N)c2-c2ccc(Cl)cc2)c1       NCI-H226      GI50   12.4 µM (inactive)
 2  Cc1ccccc1N(CCC#N)C1=NN(C(=O)CC(=O)Nc2ccc(Cl)cc2)C(c2ccccc2)C1 (stereo not given)       NCI-H226      GI50  > 100 µM (inactive)
 3  CCc1cccc(C(C)CC)c1NC(=O)CC1C(=O)Nc2ccccc2[S+]1[O-] (stereo not given)       NCI-H226      GI50  > 100 µM (inactive)
 4  O=C(NC1CCC[C@H]1OC(=O)c1ccccc1)c1ccccc1 (stereo not given in full)       NCI-H226      GI50   13.7 µM (inactive)
 5          Cc1cnc(/C=N\NC(N)=S)c2cccc(N)c12       NCI-H226      GI50   1.39 µM (inactive)
 6  COc1cc2c(cc1OC)-c1c(oc3cc(OC4OC(CO)C(O)C(O)C4O)c(OC)cc3c1=O)C(O)O2 (stereo not given)       NCI-H226      GI50  > 100 µM (inactive)
 7        C=Cc1cncc(C#N)c1CCc1c(C#N)cncc1C=C       NCI-H226      GI50   > 10 µM (inactive)
 8  C=CC(c1ccccc1)[C@@]1(OC(C)=O)C(=O)C(=O)OC1C1COC(C)(C)O1 (stereo not given in full)       NCI-H226      GI50   17.2 µM (inactive)
 9  N#CC(C#N)=c1c2nsnc2c(=C(C#N)C#N)c2nsnc12       NCI-H226      GI50   16.7 µM (inactive)
10    COC(=O)C(=O)CC(=O)CCn1ncc(Cl)c(Cl)c1=O       NCI-H226      GI50   24.2 µM (inactive)
